tested on: UACC-62; assay: NCI tumour cell line growth inhibition, 48 h
Activity calls are given as the source filed them. No stated cut-off is given here; in the data, active = GI50 up to about 1.1 µM and inactive = higher.
Endpoint label: GI50

What does the data say about its GI50? Entry: "Cc1nn(-c2ccccc2)c2nc(N3CCOCC3)nnc12"
69.2 µM (inactive)

Follow-up item: CC1=NN(C(=O)Nc2ccccc2)C(=O)C2CCC(=O)N12 (stereo not given)
> 100 µM (inactive)

Follow-up item: "O=c1[nH]nc(-c2ccccc2)n1/N=C/c1ccc([N+](=O)[O-])o1"
5.21 µM (inactive)

Follow-up item: "O=c1c2ccccc2nc(-c2ccccc2)n1O"
> 100 µM (inactive)

Follow-up item: COC1(c2ccccc2)N=C(S)NN=C1c1ccccc1 (stereo not given)
51.4 µM (inactive)

* * *

system: SNB-19; assay: NCI tumour cell line growth inhibition, 48 h
The source made the active and inactive calls. Cut-off read from the data, not from the text of the source: active = GI50 up to about 1.1 µM and inactive = higher.
Hello, when you answer, please use one of the following outcomes: active, inactive

What did the test return for "CN(C)Cc1cc(C(=O)/C=C/c2ccc([N+](=O)[O-])cc2)cc(CN(C)C)c1O" ?
inactive

Follow-up item: CC1CCC/C1=C(/I)C(=O)c1ccccc1 (stereo not drawn)
inactive

Follow-up item: "CCN(CC)CCN1CCN=c2c3cc(OC)ccc3n3cnc4ccc1c2c43"
active

* * *

test system: NCI-H23; assay: NCI tumour cell line growth inhibition, 48 h
Active and inactive are the calls of the source. Cut-off read from the data, not from the text of the source: active = GI50 up to about 1.1 µM and inactive = higher.
Hello, when you answer, please use one of the following outcomes: T for active, F for inactive

What did the test return for "COCO[C@@H]1C[C@H]2C(=O)N(COC)c3ccccc3C(=O)N2C1" ?
F

Follow-up item: CC1=NN(C(=O)Nc2ccccc2)C(=O)C2CCC(=O)N12 (stereo unspecified)
F

Follow-up item: "C/C(=N/O)c1ccc2c(c1)/C(=N/O)c1cc(/C(C)=N/O)ccc1-2"
F

Follow-up item: "Cc1nnc2sc(-c3ccc([N+](=O)[O-])o3)nn12"
F

Follow-up item: "NCCc1ccc2oc3cc(=O)c4ccccc4c-3nc2c1"
T

Follow-up item: "O=C1CCCc2c1c1c(n2Cc2ccccc2)-c2ccccc2C1=O"
F

Follow-up item: C=C1C(=O)O[C@@H]2C[C@@H](C)[C@@H]3[C@@H](OC4OC(COC(C)=O)C(O)C(O)C4O)CC(=O)[C@@]3(C)C[C@H]12 (stereo partly specified)
F

Follow-up item: C=C(C)CCC1CCCCC(CN(C)C)C1=O (stereo unspecified)
F

Follow-up item: "O=c1c2ccccc2nc(-c2ccccc2)n1O"
F

Follow-up item: "CCOC(=O)CSc1nc(-c2ccccc2)c(C#N)c(=O)[nH]1"
F

Follow-up item: "O=C1/C(=N/O)Cc2c(Br)ccc(Br)c21"
F

Follow-up item: NC(CCCCNC(=O)CNC(=O)OCc1ccccc1)C(=O)NC(CCCCNC(=O)CNC(=O)OCc1ccccc1)C(=O)NC(CCCCNC(=O)CNC(=O)OCc1ccccc1)C(=O)NC(CCCCNC(=O)CNC(=O)OCc1ccccc1)C(=O)NC(CCCCNC(=O)CNC(=O)OCc1ccccc1)C(=O)NC(CCCCNC(=O)CNC(=O)OCc1ccccc1)C(=O)O (stereo unspecified)
F

Follow-up item: "NC1CCCCC1.O=P(O)(O)C(CSc1ccccc1)P(=O)(O)O"
F

Follow-up item: "O=C(O)Cc1cccnc1"
F

Follow-up item: "C=CCN1C(=O)/C(=C/c2cccs2)N=C1SC/C=C/C"
F

Follow-up item: "CCOC(=O)COc1cccc2occc(=O)c12"
F

Follow-up item: "COc1ccccc1NC(=O)/C(=C/c1ccccc1)C(C)=O"
F

Follow-up item: "CC1=CC(=C(c2ccc(N)c(C)c2)c2ccc(N)c(C)c2)C=CC1=N"
F

Follow-up item: "COC(=O)CCC1=NCC(C)(C)O1"
F

Follow-up item: "CSc1ncnc2c1cnn2Cc1cn(COCCO)nn1"
F

Follow-up item: O=C(NC(COC(=O)C(Cc1ccccc1)NC(=O)c1ccccc1)Cc1ccccc1)c1ccccc1 (stereo unspecified)
F

Follow-up item: O=C(CC(C(=O)c1cccs1)c1cccs1)c1ccccc1Cl (stereo unspecified)
F

Follow-up item: "CN(C)Cc1cc(C(=O)/C=C/c2ccc([N+](=O)[O-])cc2)cc(CN(C)C)c1O"
F

Follow-up item: CCC12C=CCN(CCc3c([nH]c4ccccc34)/C=C\1)C2 (stereo unspecified)
F

Follow-up item: "C[C@]12CCC(=O)C=C1CC[C@@H]1[C@@H]2CC[C@]2(C)C(=O)/C(=C/c3ccc([N+](=O)[O-])cc3)C[C@@H]12"
F

Follow-up item: "Cc1c2cc(Cl)ccc2n2c(=O)c3ccccc3[nH]c(=O)c12"
F

Follow-up item: "Nc1ncnc2c1ncn2[C@@H]1C[C@H](NO)[C@@H](O)[C@H]1O"
F

Follow-up item: CC1(C)COC2C(N(Cc3ccccc3)Cc3ccccc3)C(=O)N21 (stereo unspecified)
F

Follow-up item: O=c1c2ccccc2nc(-c2ccccc2Cl)n1NC1OC(CO)C(O)C(O)C1O (stereo unspecified)
F

Follow-up item: "Cc1c2c(c(C)c3c[n+](C)ccc13)Oc1ccccc1O2"
F

Follow-up item: "Nc1nc(=O)c(/N=N/c2ccccc2)c(N)[nH]1"
F

Follow-up item: "C[N+]1(C)CC[N+](C)(C)[BH-]1C(O)O"
F

Follow-up item: CC1(OCc2ccccc2)C(=O)N2C1NCC2(C)C (stereo unspecified)
F

Follow-up item: "CSc1nc(C#N)c(/N=C\N(C)C)n1C"
F

Follow-up item: C=CCc1ccc(O)c(-c2cc(C3Oc4c(-c5cc(CC=C)ccc5O)cc(O)cc4[C@@H]3CO)ccc2O)c1 (stereo partly specified)
F

Follow-up item: COc1c(OC(C)=O)c(OC(C)=O)cc2c1-c1ccc(OC)c(=O)cc1C(NC(C)=O)CC2 (stereo unspecified)
T

Follow-up item: N#CC1=C(N)N(c2ccccc2)C(c2ccccc2)C1(C#N)C#N (stereo unspecified)
F

Follow-up item: "Cn1c2ccccc2n2c3ncccc3/c(=N/CCCC(=O)O)c(C#N)c12"
F

Follow-up item: COc1ccc(C2c3cc4c(cc3OC(N3CCOCC3)C2C)OCO4)c(OC)c1 (stereo unspecified)
F

Follow-up item: "CCCCc1c2c(nc3c1CCc1cc4cc5c(nc4nc1-3)-c1nc3c(c(CCCC)c1CC5)CCC/C3=C\c1ccccc1)/C(=C/c1ccccc1)CCC2"
F

Follow-up item: "O[C@H]1[C@H](O)[C@@H](O)[C@@]2(O)CC[C@@H]1N2"
F

* * *

tested on: MOLT-4; assay: NCI tumour cell line growth inhibition, 48 h
The source made the active and inactive calls. Rule as the data show it: active = GI50 up to about 1.1 µM and inactive = higher.
Hello, when you answer, please use one of the following outcomes: active, inactive

What did the test return for "COc1ccc(CCCC(=O)O)c(C)c1" ?
inactive

Follow-up item: "CCCCC1=C(C(=O)N2CCOCC2)C2(OCCO2)C1=O"
inactive

Follow-up item: "Cn1c2ccccc2n2c3ncccc3/c(=N/CCCC(=O)O)c(C#N)c12"
inactive

Follow-up item: O=C(CC1(O)C(=O)Nc2c(Cl)ccc(Cl)c21)c1ccc(F)cc1 (configuration not stated)
inactive

Follow-up item: OC(CC(O)(C(F)(F)F)C(F)(F)F)C(O)c1ccco1 (configuration not stated)
inactive

Follow-up item: "Cc1cc(C)nc(NS(=O)(=O)c2ccc(NC(=O)c3ccc4nc5ccccc5c(Nc5ccc(S(N)(=O)=O)cc5)c4c3)cc2)n1"
inactive

Follow-up item: "COc1cc(CNc2ccc(C)cc2)cc(OC)c1OC"
active

* * *

tested on: SK-MEL-28; experiment: NCI tumour cell line growth inhibition, 48 h
Activity calls are given as the source filed them. Cut-off read from the data, not from the text of the source: active = GI50 up to about 1.1 µM and inactive = higher.
Answer each item with its documented GI50.

What does the data say about its GI50? Entry: "C=CCNC(=S)N/N=C1\C(=O)Nc2ccc([N+](=O)[O-])cc21"
> 100 µM (inactive)

Follow-up item: O=C(NCCCCCCNC(=O)NC1OCC(O)C(O)C1O)NC1OCC(O)C(O)C1O (stereo unspecified)
> 100 µM (inactive)

Follow-up item: OCC1OC(n2ccc3cnccc32)CC1O (stereo unspecified)
> 100 µM (inactive)

Follow-up item: OC12CCC3(OC4CCCCO4)c4ccccc4C3C1c1ccccc12 (stereo unspecified)
76 µM (inactive)

Follow-up item: C=CCC1C(=O)CC2(C)CC(=O)C(CC=C)C12C (stereo unspecified)
> 100 µM (inactive)

Follow-up item: "NCCCNCCCCN(CCCN)/[N+]([O-])=N\O"
> 100 µM (inactive)

* * *

system: NCI-H226; test: NCI tumour cell line growth inhibition, 48 h
The source made the active and inactive calls. Cut-off read from the data, not from the text of the source: active = GI50 up to about 1.1 µM and inactive = higher.
Hello, when you answer, please use one of the following outcomes: Yes = active, No = inactive

What did the test return for CCCNC(=O)C(C)(Cl)C(=O)c1ccccc1O (stereo unspecified) ?
No

Follow-up item: "C/C(CN1C(=O)c2ccccc2C1=O)=N\NS(=O)(=O)c1cccc(C(=O)O)c1"
No

Follow-up item: "O=C1C(=Cc2ccc(F)cc2)C(=O)c2ccccc21"
No

Follow-up item: Cn1c(=O)c2c(nc(N3CCOCC3)n2CCCNCC(O)c2ccc(O)c(O)c2)n(C)c1=O (stereo unspecified)
No

Follow-up item: COc1cc2cc(C(=O)N3CC(CCl)c4ccc(N(C)C)cc43)[nH]c2c(OC)c1OC (stereo unspecified)
Yes

Follow-up item: N#CCC(=O)N/N=C(/C(=O)Nc1ccccc1)C1C(=O)N(c2ccccc2)N=C1N (stereo unspecified)
No

Follow-up item: COC1=NC(NC2OCC(O)C(O)C2O)=C(NC(C)=O)CN1C (stereo unspecified)
No

Follow-up item: "Cc1cc(N(CCC#N)CCC#N)ccc1/C=C\C(=O)Nc1ccccc1"
No

Follow-up item: O=c1[nH]c(=O)n(C2CC(O)C(CO)O2)cc1OS(=O)(=O)C(F)(F)F (stereo unspecified)
No

Follow-up item: "Cc1c2ncccc2c(C)c2c1[nH]c1ccc(O)cc12"
No

Follow-up item: "S=C(c1c[nH]c2ccccc12)N1CCN(c2ccccc2)CC1"
No

Follow-up item: "C/C(=C\COc1ccc2ccc(=O)oc2c1)C1=CC(=O)C(C)(C)O1"
No

Follow-up item: "Cc1c2c(c(C)c3c[n+](C)ccc13)Oc1ccccc1O2"
No

Follow-up item: "CCc1oc2ccccc2c1C(=O)c1cc(Br)c(O)c(Br)c1"
No

Follow-up item: CCCNCC(O)CNc1ccc(NCC(O)CNCCC)c2c1C(=O)c1ccccc1C2=O (stereo unspecified)
No

Follow-up item: C=C1C(=O)O[C@@H]2C[C@@H](C)[C@@H]3[C@@H](OC4OC(COC(C)=O)C(O)C(O)C4O)CC(=O)[C@@]3(C)C[C@H]12 (stereo partly specified)
No

Follow-up item: OC(CC(O)(C(F)(F)F)C(F)(F)F)C(O)c1ccco1 (stereo unspecified)
No

Follow-up item: "CN(CCN(C)C(=O)CCn1cc(F)c(=O)[nH]c1=O)C(=O)CCn1cc(F)c(=O)[nH]c1=O"
No

Follow-up item: "COc1ccc(CCCC(=O)O)c(C)c1"
No

Follow-up item: "COc1cc(OC)c(/C=C\c2ccnc3ccccc23)c(OC)c1"
No

Follow-up item: "CC1(C)CCc2c(ccc(C(=O)/C=C/c3ccc(O)cc3)c2O)O1"
No
